- System: BT-549
- EXPERIMENT_NOTES: NCI tumour cell line growth inhibition, 48 h
Calls of active or inactive are those of the source. Rule as the data show it: active = GI50 up to about 1.1 µM and inactive = higher.
Listed molecules paired with reported GI50

OCC(CN1CCCCC1)(CN1CCCCC1)CN1CCCCC1 = > 100 µM (inactive)
CCOC(=O)c1c2c(n(-c3ccc(C)cc3)c1C)-c1ccccc1C(=O)C2(C(=O)OCC)C(=O)OCC = 24.8 µM (inactive)
CC(=O)N1CC[N+](C)(CCCCN2c3ccccc3Sc3cc(N=[N+]=[N-])ccc32)CC1 = > 100 µM (inactive)

[ask] So what's the measured GI50 for this one? `C=C(C(=O)OCC)C(=O)OCC`
[reply] > 100 µM (inactive)

[ask] Here is the next molecule: `c1ccc(C(/C(=N/c2ccc(Cc3ccc(/N=C(\C(c4ccccc4)c4ccccc4)N4CC4)cc3)cc2)N2CC2)c2ccccc2)cc1`
[reply] 10.5 µM (inactive)

[ask] Thanks! And `Cc1cc(C2(c3cc(C)c(O)c(C(=O)O)c3)OS(=O)(=O)c3ccccc32)cc(C(=O)O)c1O` ?
[reply] > 100 µM (inactive)

[ask] Okay, and `O=C(O)c1cc(-c2ccc(-c3ccccc3)cc2)nc2cc3ccccc3cc12` ?
[reply] 35.9 µM (inactive)

[ask] Follow-up entry: O=C1NCC(NC(=O)C(F)(F)F)c2c(Br)sc(Br)c21 (stereo not given)
[reply] > 100 µM (inactive)

[ask] Now consider CC(C)(C)c1cc(C2=NNC(c3ccccc3)C2)cc(C(C)(C)C)c1O (stereo not given) and answer again.
[reply] 17.1 µM (inactive)

[ask] Consider next the molecule `O=C1/C(=C/c2ccc(O)cc2)CC/C1=C\c1ccc(O)cc1` in the same way.
[reply] > 100 µM (inactive)

[ask] Same lookup for OCC1OC(NC(=S)NCCC(F)(F)C(F)(F)C(F)(F)C(F)(F)C(F)(F)C(F)(F)F)C(O)C(O)C1O (stereo not given) , please.
[reply] > 100 µM (inactive)

[ask] Moving on to COc1cccc(N2C(=O)C3c4[nH]c5ccc(C)cc5c4C4CCC(C)CC4C3C2=O)c1 (stereo not given)
[reply] 76 µM (inactive)

[ask] Follow-up entry: `CN(C)C(=S)SCC(=O)Nc1ccccc1`
[reply] > 100 µM (inactive)

[ask] Check `Oc1cc(CF)nc(S)n1` too.
[reply] > 100 µM (inactive)

[ask] Also `O=C(O)CNCc1c2ccccc2nc2ccccc12` , if possible.
[reply] 33.4 µM (inactive)

* * *

Examples of molecules with documented GI50 follow.
- Tested on: MDA-N
- EXPERIMENT_NOTES: NCI tumour cell line growth inhibition, 48 h
Active and inactive are the calls of the source. Rule as the data show it: active = GI50 up to about 1.1 µM and inactive = higher.

Reference set (4 entries):
CN(C)C(=S)SCC(=O)Nc1ccccc1 = > 100 µM (inactive)
OC(C1CCCCCCCCCC1)C(O)C1CCCCCCCCCC1 (stereo not given) = > 100 µM (inactive)
O=C1CN2CCN(CC2)CC(=O)Nc2ccc(cc2)S(=O)(=O)c2ccc(cc2)NC(=O)CN2CCN(CC2)CC(=O)Nc2ccc(cc2)S(=O)(=O)c2ccc(cc2)N1 = 41.8 µM (inactive)
Cc1cc2nc3ccccc3n2c2ccccc12 = > 10 µM (inactive)

[ask] What value of measured GI50 is listed for CC(C)C1CC(CO)(CNc2nc(N)nc(Cl)c2C=O)C1 (stereo not given) ?
[reply] 2.85 µM (inactive)
